- measuredTarget: Vascular endothelial growth factor receptor 2 (Homo sapiens, UniProt P35968); further: assay procedure not described here
- Sequence (P35968 whole entry): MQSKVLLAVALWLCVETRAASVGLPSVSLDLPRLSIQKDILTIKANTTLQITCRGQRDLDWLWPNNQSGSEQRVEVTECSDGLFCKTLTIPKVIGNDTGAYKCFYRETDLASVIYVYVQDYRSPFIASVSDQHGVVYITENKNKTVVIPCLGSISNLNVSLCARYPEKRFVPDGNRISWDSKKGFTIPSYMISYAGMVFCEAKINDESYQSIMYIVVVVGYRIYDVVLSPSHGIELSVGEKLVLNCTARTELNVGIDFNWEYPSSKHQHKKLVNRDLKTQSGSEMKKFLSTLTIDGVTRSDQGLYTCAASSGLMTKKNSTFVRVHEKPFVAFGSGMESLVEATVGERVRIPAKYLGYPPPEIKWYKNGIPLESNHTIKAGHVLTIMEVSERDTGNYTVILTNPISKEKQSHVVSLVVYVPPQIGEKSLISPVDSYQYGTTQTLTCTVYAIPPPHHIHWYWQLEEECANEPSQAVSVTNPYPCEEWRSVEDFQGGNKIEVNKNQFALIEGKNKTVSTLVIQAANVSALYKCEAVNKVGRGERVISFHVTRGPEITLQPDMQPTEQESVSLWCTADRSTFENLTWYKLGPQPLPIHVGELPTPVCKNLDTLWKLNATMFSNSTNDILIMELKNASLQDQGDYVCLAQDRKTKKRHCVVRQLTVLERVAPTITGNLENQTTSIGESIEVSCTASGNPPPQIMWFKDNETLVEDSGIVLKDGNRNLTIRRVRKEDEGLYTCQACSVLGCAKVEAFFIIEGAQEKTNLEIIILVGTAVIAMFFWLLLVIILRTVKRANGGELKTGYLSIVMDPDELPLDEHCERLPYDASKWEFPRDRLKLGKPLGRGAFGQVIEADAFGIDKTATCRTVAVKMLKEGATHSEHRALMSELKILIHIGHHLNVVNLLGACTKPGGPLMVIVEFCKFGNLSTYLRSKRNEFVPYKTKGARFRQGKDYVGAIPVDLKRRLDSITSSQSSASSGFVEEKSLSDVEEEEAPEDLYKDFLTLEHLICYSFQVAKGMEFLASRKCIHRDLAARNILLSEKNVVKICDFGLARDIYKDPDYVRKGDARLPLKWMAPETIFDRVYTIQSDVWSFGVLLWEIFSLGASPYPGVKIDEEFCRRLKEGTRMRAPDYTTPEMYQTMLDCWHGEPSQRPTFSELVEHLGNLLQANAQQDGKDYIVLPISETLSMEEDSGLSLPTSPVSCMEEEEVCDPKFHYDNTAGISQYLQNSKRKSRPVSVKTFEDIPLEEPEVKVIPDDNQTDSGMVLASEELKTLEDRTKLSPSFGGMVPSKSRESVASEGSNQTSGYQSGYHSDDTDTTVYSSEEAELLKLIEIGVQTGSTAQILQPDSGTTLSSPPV
- Format: functional
measure: AC50

Can you share its AC50? I mean this compound: C[C@]12CC[C@@H]3c4ccc(OC(=O)N(CCCl)CCCl)cc4CC[C@H]3[C@@H]1CC[C@@H]2OP(=O)(O)O [ESTRAMUSTINE PHOSPHATE] 19.5 µM

Can you share its AC50? I mean this compound: `CCn1c(=O)c2c(nc(/C=C/c3ccc(OC)c(OC)c3)n2C)n(CC)c1=O` > 10 µM

Can you share its AC50? I mean this compound: `Cc1cn(-c2cc(NC(=O)c3ccc(C)c(Nc4nccc(-c5cnccn5)n4)c3)cc(C(F)(F)F)c2)cn1` 1.54 µM

Can you share its AC50? I mean this compound: `OCc1ccccc1` > 30 µM

Can you share its AC50? I mean this compound: `Nc1ccc(C(=O)NCC(=O)O)cc1` > 30 µM

Can you share its AC50? I mean this compound: `Cc1ccc2c([nH]c(=O)c3c(=O)cc(C(=O)OCCC(C)C)oc32)c1C` > 30 µM

Can you share its AC50? I mean this compound: C#C[C@]1(OC(C)=O)CC[C@H]2[C@@H]3CCC4=CC(=O)CC[C@@H]4[C@H]3CC[C@@]21C [NORETHINDRONE ACETATE] > 30 µM

Can you share its AC50? I mean this compound: `Cc1c(C(C)C)c(=O)n(-c2ccccc2)n1C` > 30 µM

---

- measuredTarget: Glucocorticoid receptor (Homo sapiens); further: assay procedure not described here
- Sequence (P04150 whole entry): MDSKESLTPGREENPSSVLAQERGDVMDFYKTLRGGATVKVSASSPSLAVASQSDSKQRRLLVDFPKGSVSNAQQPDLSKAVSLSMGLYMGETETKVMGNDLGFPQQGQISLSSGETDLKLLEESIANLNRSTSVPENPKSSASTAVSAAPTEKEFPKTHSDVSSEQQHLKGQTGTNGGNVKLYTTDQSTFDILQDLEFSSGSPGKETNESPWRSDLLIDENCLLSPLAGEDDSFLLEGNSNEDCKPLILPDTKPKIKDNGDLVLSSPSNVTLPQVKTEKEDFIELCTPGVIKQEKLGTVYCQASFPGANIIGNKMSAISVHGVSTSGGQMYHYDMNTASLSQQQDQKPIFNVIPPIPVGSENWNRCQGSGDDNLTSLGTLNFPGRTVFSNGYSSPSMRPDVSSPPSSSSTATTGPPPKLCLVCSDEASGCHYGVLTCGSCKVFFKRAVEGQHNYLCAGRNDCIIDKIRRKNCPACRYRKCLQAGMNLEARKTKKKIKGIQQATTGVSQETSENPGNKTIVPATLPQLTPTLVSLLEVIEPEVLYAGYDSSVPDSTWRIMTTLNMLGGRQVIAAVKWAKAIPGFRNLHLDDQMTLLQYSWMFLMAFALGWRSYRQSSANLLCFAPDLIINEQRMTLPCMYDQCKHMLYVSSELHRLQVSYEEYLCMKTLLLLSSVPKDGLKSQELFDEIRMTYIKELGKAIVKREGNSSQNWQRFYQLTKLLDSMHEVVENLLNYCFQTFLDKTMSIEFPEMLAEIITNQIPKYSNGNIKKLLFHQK
measure: AC50

Can you share its AC50? I mean this molecule: `CC(C)/N=c1\cc2n(-c3ccc(Cl)cc3)c3ccccc3nc-2cc1Nc1ccc(Cl)cc1` 0.034 µM

Can you share its AC50? I mean this molecule: `COc1nc(C)nc(Cl)c1N=C1NCCN1` > 30 µM

Can you share its AC50? I mean this molecule: `CN(C)[C@@H]1C(O)=C(C(=O)NCN2CCCC2)C(=O)[C@@]2(O)C(O)=C3C(=O)c4c(O)cccc4[C@@](C)(O)[C@H]3C[C@@H]12` 25.8 µM

Can you share its AC50? I mean this molecule: `Cc1cnc(Nc2ccc(OCCN3CCCC3)cc2)nc1Nc1cccc(S(=O)(=O)NC(C)(C)C)c1` > 30 µM

Can you share its AC50? I mean this molecule: `C[C@]12C=CC(=O)C=C1C(Cl)=C[C@@H]1[C@@H]2[C@@H](O)C[C@@]2(C)[C@H]1CC[C@]2(O)C(=O)CO` 0.032 µM

Can you share its AC50? I mean this molecule: `COC(=O)c1ccc2c(c1)NC(=O)/C2=C(\Nc1ccc(N(C)C(=O)CN2CCN(C)CC2)cc1)c1ccccc1` > 30 µM

Can you share its AC50? I mean this molecule: `CCCCOC(=O)c1ccc(N)cc1` > 30 µM

Can you share its AC50? I mean this molecule: `NCC1(CC(=O)O)CCCCC1` > 30 µM

---

- measuredTarget: UniProt P08913
- Sequence (P08913 whole entry): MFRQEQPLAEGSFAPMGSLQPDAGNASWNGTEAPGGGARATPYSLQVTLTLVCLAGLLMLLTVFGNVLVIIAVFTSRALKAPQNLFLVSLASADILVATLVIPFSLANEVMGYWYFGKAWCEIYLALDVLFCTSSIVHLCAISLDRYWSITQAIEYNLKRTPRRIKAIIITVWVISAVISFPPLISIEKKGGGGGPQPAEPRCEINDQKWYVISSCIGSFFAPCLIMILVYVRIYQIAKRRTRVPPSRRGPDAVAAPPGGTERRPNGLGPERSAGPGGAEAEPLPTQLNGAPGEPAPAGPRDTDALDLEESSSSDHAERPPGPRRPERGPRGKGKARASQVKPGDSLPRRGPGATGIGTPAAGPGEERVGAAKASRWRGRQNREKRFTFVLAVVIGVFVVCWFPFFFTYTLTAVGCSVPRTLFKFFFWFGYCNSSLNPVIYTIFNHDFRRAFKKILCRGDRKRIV
- Format: functional, cell-based
Where a SMILES comes first, the peptide text is derived from it.
Can you tell me AC50 for the items I'm about to list?

Can you share its AC50? I mean this molecule: `COc1ccc(C(=O)c2ccccc2)c(O)c1` > 30 µM

Can you share its AC50? I mean this molecule: `CN1CCCN=C1/C=C/c1cccc(O)c1` > 30 µM

Can you share its AC50? I mean this molecule: CCOCC(O)COc1ccc(NC(=O)CC[S+](C)C)cc1 (stereo not drawn) > 30 µM

Can you share its AC50? I mean this molecule: `CC(C)CN(C[C@@H](O)[C@H](Cc1ccccc1)NC(=O)O[C@H]1CCOC1)S(=O)(=O)c1ccc(N)cc1` > 10 µM

Can you share its AC50? I mean this molecule: `Nc1nnc(-c2cccc(Cl)c2Cl)c(N)n1` > 10 µM

Can you share its AC50? I mean this molecule: `C[C@H](Nc1ncnc2[nH]cnc12)c1cc2cccc(Cl)c2c(=O)n1-c1ccccc1` > 30 µM

Can you share its AC50? I mean this molecule: `CCNC(=O)CCC/C=C\C[C@@H]1[C@@H](/C=C/[C@@H](O)CCc2ccccc2)[C@H](O)C[C@@H]1O` > 30 µM

Can you share its AC50? I mean this molecule: `OCCN(CCO)c1nc(N2CCCCC2)c2nc(N(CCO)CCO)nc(N3CCCCC3)c2n1` > 30 µM

Can you share its AC50? I mean this molecule: CC1(C)O[C@@H]2C[C@H]3[C@@H]4CCC5=CC(=O)C=C[C@]5(C)[C@@]4(F)[C@@H](O)C[C@]3(C)[C@]2(C(=O)CO)O1 [TRIAMCINOLONE ACETONIDE] > 30 µM

Can you share its AC50? I mean this molecule: CCN(CCO)CCCC(C)Nc1ccnc2cc(Cl)ccc12 (stereo not drawn) [HYDROXYCHLOROQUINE] > 10 µM

Can you share its AC50? I mean this molecule: C[C@H](N)C(=O)N[C@@H](CCC(N)=O)C(=O)O [ALANYL GLUTAMINE] (H-Ala-Gln-OH) > 30 µM

Can you share its AC50? I mean this molecule: `CCOC(=O)Nc1ccc(NCc2ccc(F)cc2)nc1N` 23 µM

Can you share its AC50? I mean this molecule: Cc1cccc(Nc2ccncc2S(=O)(=O)NC(=O)NC(C)C)c1 [TORSEMIDE] > 10 µM

Can you share its AC50? I mean this molecule: `CC(=O)[C@@]1(O)CC[C@H]2[C@@H]3C[C@H](C)C4=CC(=O)C=C[C@]4(C)[C@@]3(F)[C@@H](O)C[C@@]21C` > 10 µM

Can you share its AC50? I mean this molecule: `NCCCCCC(=O)O` > 10 µM

Can you share its AC50? I mean this molecule: O=C(C[S+]([O-])Cc1ccco1)NC/C=C\COc1cc(CN2CCCCC2)ccn1 (stereo not drawn) > 10 µM

Can you share its AC50? I mean this molecule: COc1cc2c(cc1OC)C1CC(=O)C(CC(C)C)CN1CC2 (stereo not drawn) 18 µM

Can you share its AC50? I mean this molecule: `CN(C)CCN(Cc1ccccc1)c1ccccn1` > 10 µM
